Source listed as ChEMBL document CHEMBL1201862.

- Tested on: KM12
- test details: NCI tumour cell line growth inhibition, 48 h
Activity calls are given as the source filed them. Rule as the data show it: active = GI50 up to about 1.1 µM and inactive = higher.
property measured: GI50

Sample `Clc1ccc(OCc2nnc3n2N=C(c2ccccc2)CS3)cc1` — what was its GI50?
15.9 µM (inactive)

Sample O=C(O)c1ccccc1CC1Cc2ccc3c(c2C1=O)CCC3 (stereo not given) — what was its GI50?
> 100 µM (inactive)

Sample `O=C(OCC(Cl)(Cl)Cl)O[C@@H]1CCCC1(c1ccccc1)c1ccccc1` — what was its GI50?
45.3 µM (inactive)

Sample O=C(O)c1cc2c(cc1CC(Cc1ccc3c(c1)CCC3)C(=O)O)CCC2 (stereo not given) — what was its GI50?
> 100 µM (inactive)

Sample `CC1=C(C(=O)NCc2ccccc2)C(c2ccc(Cl)c(Cl)c2)C(C(=O)NCc2ccccc2)=C(C)N1` — what was its GI50?
> 100 µM (inactive)

Sample `CCOc1ccccc1NC(=O)C1=C(C)NC(C)=C(C(=O)Nc2ccccc2OCC)C1c1cccc([N+](=O)[O-])c1` — what was its GI50?
49.9 µM (inactive)

Sample N#CC1C(=O)NC2=C(CCOc3c2ccc2ccccc32)C1c1ccc(F)cc1 (stereo not given) — what was its GI50?
67.5 µM (inactive)

Sample COc1ccc(CC2(O)C3CC4CCC2C4C3)cc1 (stereo not given) — what was its GI50?
> 100 µM (inactive)

Sample `COC(=O)C1(OC(=O)Sc2ccccc2)CCN(C)CC1` — what was its GI50?
10.9 µM (inactive)

Sample `Cc1c(N2C(=O)/C(=C/c3ccc(Cl)cc3)N=C2c2ccccc2)c(=O)n(-c2ccccc2)n1C` — what was its GI50?
26.5 µM (inactive)

----------
- System: HOP-92
- test details: NCI tumour cell line growth inhibition, 48 h
Calls of active or inactive are those of the source. Cut-off read from the data, not from the text of the source: active = GI50 up to about 1.1 µM and inactive = higher.
In this exercise, the only acceptable responses are active, inactive

Outcome? `c1ccc(N/N=C2\NN=C(c3ccccc3)CS2)cc1`
inactive

Outcome? `COc1ccccc1C[C@@H]1OC2(C=CC(=O)C=C2)O[C@H]1Cc1ccccc1OC`
inactive

Outcome? `O=C(O)CCCCCCC[C@H]1S[C@H]1CCCCCCO`
active

Outcome? `COc1ccc(/C(Cl)=C(\C=O)c2ccc(OC)c(OC)c2)cc1`
inactive

Outcome? Cn1cc(C2(C)CC(C)(C)c3c2n(C)c2ccccc32)c2ccccc21 (stereo not given)
inactive

Outcome? `CC1(C)CC(=O)C(=CN2C(=O)CNC2=S)C(=O)C1`
inactive

Outcome? COC(=O)c1cc2c3c(cc(N(C)C)c2[nH]1)N(C(=O)c1cc2cc(OC)c(OC)c(OC)c2[nH]1)CC3CCl (stereo not given)
active

Outcome? `CCOC(=O)/C=C(\C(=O)OCC)n1ccc(=O)n(Cc2cnnn2CCCCOC(C)=O)c1=O`
inactive

Outcome? O=C(c1ccccc1)C1N=NN(Cc2ccccc2[N+](=O)[O-])C1C(=O)c1ccccc1 (stereo not given)
inactive

Outcome? `COc1ccc(-c2cc(O)c3cc4c(cc3n2)OCO4)c(OC)c1`
inactive

----------
- Tested on: IGROV-1
- test details: NCI tumour cell line growth inhibition, 48 h
Activity calls are given as the source filed them. No stated cut-off is given here; in the data, active = GI50 up to about 1.1 µM and inactive = higher.
In this exercise, the only acceptable responses are active, inactive

Outcome? COc1ccc2c(c1)CCC(CN1CCN(CCOC(c3ccc(F)cc3)c3ccc(F)cc3)CC1)C2O (centres undefined)
inactive

Outcome? FC(F)(F)c1ccc2c(c1)nc(Cc1ccc(Cl)c(Cl)c1)n2CC1CCCN2CCCCC12 (centres undefined)
inactive

Outcome? COc1cc(C2c3cc4c(cc3[C@@H](Oc3ccc(F)cc3)C3COC(=O)[C@H]23)OCO4)cc(OC)c1O (some centres undefined)
inactive

Outcome? C=CCN(C(=O)OC(C)(C)C)C1=CC2C(C)=CN(S(=O)(=O)c3ccccc3)C2C(OCc2ccccc2)=C1 (centres undefined)
inactive

Outcome? `O=C(Nc1ccccc1)O/N=C1/CCCC/C1=C\c1ccccc1`
inactive

Outcome? CC1(c2ccc(Cl)cc2)c2ccccc2C(=O)N1CCCN1C(=O)c2ccccc2C1=O (centres undefined)
inactive

Outcome? `Cc1cccc(C)c1NC(=O)CCC(=O)/N=C(\N)NC#N`
inactive

Outcome? Fc1cccc(C2ON=C(c3ccccc3)N2C23CC4CC(CC(C4)C2)C3)c1 (centres undefined)
inactive

Outcome? `O=C1/C(=C/c2ccc(Cl)cc2)N=C(c2ccccc2)N1c1nc2ccc(Sc3ccccc3)cc2[nH]1`
inactive

Outcome? `CCOP(=O)(/C=C/n1ccc(=O)[nH]c1=O)OCC`
inactive

Outcome? `Cn1nc(-c2ccccc2)c(C(=O)/C=C/c2ccc(Cl)cc2)c(N2CCCCC2)c1=O`
inactive

Outcome? `CC(C)(C)c1ccc(O)c(CN(Cc2cc(C(C)(C)C)ccc2O)C2CCCCC2)c1`
inactive

Outcome? CC1(C)C(C#N)C1C1=C(N2CCOCC2)[C@]2(C)C(OC(=O)c3ccccc3)CC[C@@H]2C1 (some centres undefined)
inactive

Outcome? `O=c1sc(Nc2ccc3ccccc3c2Cl)nc2ccccc12`
inactive

Outcome? `CC1(C)CCC2=C(O1)/C(=N\Nc1ccccc1)c1ccccc1C2=O`
inactive

Outcome? `N#CC(=S)Nc1ccc(F)cc1`
inactive

Outcome? `COc1cc(/C=C\C(=O)O)ccc1OCc1ccccc1`
inactive

Outcome? CC1(C)C(=O)C=CC2(C)C1CC(O)C1(C)C2CCC2(C)C(c3ccoc3)OC(=O)C3OC321 (centres undefined)
inactive

Outcome? `O=c1oc2c(ccc3c(O)cccc32)c2c1CCCC2`
inactive

Outcome? `COc1ccc(-n2c(-c3ccccc3)cc(-c3cccs3)c2-c2cccs2)cc1`
inactive

Outcome? `OCC1=C[C@@](COCc2ccccc2)(OCc2ccccc2)[C@@H](OCc2ccccc2)[C@@H]1OCc1ccccc1`
inactive

Outcome? CN1c2ccccc2N(C(=O)c2ccc([N+](=O)[O-])cc2)C(CC(=O)O)c2cccn21 (centres undefined)
inactive

Outcome? CCOP(=O)(CC1OC(CO)C(O)C1O)OCC (centres undefined)
inactive

Outcome? `CCOC(=O)c1oc2cc3c(c4c2c1-c1ccccc1N4C)C=CC(C)(C)O3`
inactive

Outcome? `CCN(CC)CSc1nc2ccccc2[nH]1`
inactive

Outcome? CC(=O)C1(O)Cc2c(O)c3c(c(O)c2C(OC2CC(N)C(O)C(C)O2)C1)C(=O)c1ccccc1C3=O (centres undefined)
active

Outcome? COC(=O)C1=C(C)N(NC(N)=O)C(C)(O)C12CCOC2=O (centres undefined)
inactive

Outcome? `Cc1cccc2nc3c(=O)[nH]c(=O)nc-3n(C)c12`
inactive

Outcome? COc1cc(I)c2c3c1OC1C34CCN(C)C(C2)C4=CC(I)C1(OC)OC (centres undefined)
inactive

Outcome? `COc1cc2c(c(OC)c1OC)-c1ccc(SC)c(=O)cc1[C@@H](NC(=O)c1ccc(F)cc1)CC2`
active

Outcome? CCCCCCCCCCCC(=O)C1=C(O)CCC(O)C1=O (centres undefined)
inactive

Outcome? COc1cc(/C=C/C(=O)CC(=O)/C=C/c2ccc(O)c(OC)c2)ccc1O [CURCUMIN]
inactive

Outcome? [N-]=[N+]=NC1C(O)C(CO)OC1n1ccc(=O)[nH]c1=O (centres undefined)
inactive

Outcome? `CO[C@@H](c1ccccc1)[C@H](O)[C@](O)(c1ccccc1)P(=O)(OC)OC`
inactive

Outcome? `COC(=O)C(=CNC(N)=O)C(=O)OC`
inactive

Outcome? `N#CC1=C(Cl)NC(Cl)=C(C#N)C1c1ccc(Cl)cc1`
inactive

Outcome? O=C1C2C(C(=O)N1c1ccccc1)C1([N+](=O)[O-])C=C3c4ccccc4N(C(=O)c4ccccc4)C32C2C(=O)N(c3ccccc3)C(=O)C21 (centres undefined)
inactive

Outcome? `CCOc1ccccc1NC(=O)C1=C(C)NC(C)=C(C(=O)Nc2ccccc2OCC)C1c1cccc([N+](=O)[O-])c1`
inactive

Outcome? Cc1ccc(S(=O)(=O)N/N=C(/c2nc3ccc([N+](=O)[O-])cc3nc2O)C(O)c2ccc(C(O)/C(=N\NS(=O)(=O)c3ccc(C)cc3)c3nc4ccc([N+](=O)[O-])cc4nc3O)cc2)cc1 (centres undefined)
inactive

----------
- System: CCRF-CEM
- test details: NCI tumour cell line growth inhibition, 48 h
Active and inactive are the calls of the source. No stated cut-off is given here; in the data, active = GI50 up to about 1.1 µM and inactive = higher.
In this exercise, the only acceptable responses are active, inactive

Outcome? CC1(Cl)CC(C)(/C=C/Cl)C(Cl)CC1Cl (stereo not given)
inactive

Outcome? `CC12CCC(C)(c3cc(O)c(O)cc31)c1cc(O)c(O)cc12`
inactive

Outcome? `O=c1c(Sc2ncccn2)c(Sc2ncccn2)cnn1CCl`
active

Outcome? COC(C(O)c1ccc2c(c1)OCO2)P(=O)(c1ccccc1)c1ccccc1 (stereo not given)
inactive

Outcome? CC1=C(CC2C(=O)N(c3ccccc3)S(=O)(=O)NC2C)C(=O)N(c2ccccc2)S(=O)(=O)N1C (stereo not given)
inactive

Outcome? COc1ccc2cc(C(C)C(=O)N3CCOC3=O)ccc2c1 (stereo not given)
inactive

Outcome? `CCOC(=O)c1oc2cc3c(c4c2c1-c1ccccc1N4C)C=CC(C)(C)O3`
inactive

Outcome? `COc1ccc2c(-c3ccc(O)cc3)c(Oc3ccc(Cl)cc3)c(=O)oc2c1`
inactive

Outcome? Cc1ccc(C)n1-c1ccccc1C1C=Cn2c3c1c(=O)c(OC(C)C)c(OC(C)C)c-3n[nH]c2=O (stereo not given)
inactive

Outcome? CC1CCCC(C(O)CC2CC(=O)N(c3ccccc3)C(=O)C2)C1=O (stereo not given)
inactive
